Biological target: human PPARγ (Homo sapiens)
Construct: 1.6 kb of fragment of the prepared plasmid pGEMT-hPPARg2 including human PPARγ gene
Sequence (P37231 whole entry, the tested form may be a part): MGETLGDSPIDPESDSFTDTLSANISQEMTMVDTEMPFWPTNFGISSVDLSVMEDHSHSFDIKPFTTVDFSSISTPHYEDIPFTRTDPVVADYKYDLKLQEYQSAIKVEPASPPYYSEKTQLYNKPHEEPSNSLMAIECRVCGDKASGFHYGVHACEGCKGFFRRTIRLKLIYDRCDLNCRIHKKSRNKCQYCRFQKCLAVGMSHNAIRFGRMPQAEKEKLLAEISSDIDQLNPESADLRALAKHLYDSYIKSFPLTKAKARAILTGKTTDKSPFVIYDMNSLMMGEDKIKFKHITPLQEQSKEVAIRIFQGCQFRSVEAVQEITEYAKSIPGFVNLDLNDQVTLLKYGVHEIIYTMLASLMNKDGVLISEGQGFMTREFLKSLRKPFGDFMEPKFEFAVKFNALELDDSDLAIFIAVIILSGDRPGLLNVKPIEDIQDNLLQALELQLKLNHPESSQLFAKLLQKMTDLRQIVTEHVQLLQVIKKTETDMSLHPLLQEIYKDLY
Sequence (P19793 whole entry partner, the tested form may be a part): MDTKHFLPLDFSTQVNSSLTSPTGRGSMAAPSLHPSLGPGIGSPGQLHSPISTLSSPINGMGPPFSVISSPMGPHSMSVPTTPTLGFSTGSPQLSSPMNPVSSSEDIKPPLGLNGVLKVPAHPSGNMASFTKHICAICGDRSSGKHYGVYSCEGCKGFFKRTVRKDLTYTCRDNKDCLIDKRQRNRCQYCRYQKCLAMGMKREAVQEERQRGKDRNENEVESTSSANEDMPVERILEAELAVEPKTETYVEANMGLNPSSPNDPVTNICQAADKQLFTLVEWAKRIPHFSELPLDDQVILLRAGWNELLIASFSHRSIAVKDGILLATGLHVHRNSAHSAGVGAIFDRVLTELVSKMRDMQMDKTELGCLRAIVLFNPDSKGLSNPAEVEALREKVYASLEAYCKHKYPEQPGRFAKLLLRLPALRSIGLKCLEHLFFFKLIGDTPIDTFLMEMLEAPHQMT
Experiment: Human PPARγ antagonist assay (luciferase reporter in transfected CV-1 cells)
Details: CV-1 cells expressing human PPARγ and RXRα with reporter plasmid; pioglitazone 1 μM as stimulant; 24 hours; read-out: Human PPARγ antagonist activities, Inhibition IC50
Task for the reader: assign each of the following molecules its reported IC50.
Numbers only, in nM.

Would you please look over these solved cases?
> print(dat)
                                   molecule  value.kind  unit.info  recorded.value
1  COc1cc(Cn2c3ccccc3c3c(OCCCCCC(=O)O)cccc32)ccc1OCc1nc(-c2ccccc2)oc1C [Example 21]        IC50         nM            5060
2  COc1cc(Cn2c3ccccc3c3c(OCC(C)(C)C(=O)O)cccc32)ccc1OCc1nc(-c2ccncc2)oc1C [Example 35]        IC50         nM             509
3  CC[C@@H](Oc1cccc2c1c1ccccc1n2Cc1ccc(OCc2nc(-c3ccccc3)oc2C)c(OC)c1)C(=O)O [Example 42]        IC50         nM             484
4  CCC[C@H](Oc1cccc2c1c1ccccc1n2Cc1ccc(OCc2nc(-c3ccccc3)oc2C)c(OC)c1)C(=O)O [Example 41]        IC50         nM             220
5  COc1cc(Cn2c3ccccc3c3c(OCCC(C)C(=O)O)cccc32)ccc1OCc1nc(-c2ccccc2)oc1C (racemic) [Example 27]        IC50         nM             688

Provide reported IC50 for each item, in the same order as listed.
1. COc1cc(Cn2c3ccccc3c3c(OC(C)(C)C(=O)[O-])cccc32)ccc1OCc1nc(-c2cccs2)oc1C.[Na+] [Example 32]
2. COc1cc(Cn2c3ccccc3c3c(OC(C)(C)C(=O)O)cccc32)ccc1OCc1nc(-c2cccs2)oc1C [Example 8]

Data returned:
1: 422; 2: 545
